// reported GI50 for each item listed
- Tested on: A549
- assay-comment: NCI tumour cell line growth inhibition, 48 h
Active and inactive are the calls of the source. Rule as the data show it: active = GI50 up to about 1.1 µM and inactive = higher.

compound: CC[As](CC)SCC1OC(OC(C)=O)C(OC(C)=O)C(OC(C)=O)C1OC(C)=O (stereo not given)
GI50: 21 µM (inactive)
//
compound: N#CC1(C#N)C(c2ccccc2)NC23CCCCC2C1(C#N)C(=O)N3 (stereo not given)
GI50: > 100 µM (inactive)
//
compound: CC1=CC(=O)c2cccc(O)c2C1=O
GI50: 14.9 µM (inactive)
//
compound: O=C(CCc1ccc(O)cc1)NCCc1cccc(O)c1
GI50: > 50 µM (inactive)
//
compound: Clc1ccc(C2=NOC(C3CCCCC3)C2)cc1 (stereo not given)
GI50: > 100 µM (inactive)
//
compound: CN1C(=O)N(C)C2(CCN(CC(CC3OCCO3)c3ccc(F)cc3)CC2)C1=O (stereo not given)
GI50: > 100 µM (inactive)
//
compound: Nc1cccc2cc(S(=O)(=O)Nc3ccc(C(=O)O)cc3)ccc12
GI50: > 100 µM (inactive)
//
compound: Cc1ccc(N/N=C2\C3=C(CCC(C)(C)O3)C(=O)c3ccccc32)cc1
GI50: 16 µM (inactive)
//
compound: Cc1ccc(C2=C(c3ccccc3)C(O)(c3ccc(C)cc3)C(c3ccccc3)=C2c2ccc(C)cc2)cc1
GI50: > 100 µM (inactive)
//
compound: CC(=O)OCC(OC(C)=O)C(OC(C)=O)C(OC(C)=O)C(=O)CNn1c(-c2ccccc2)nc2ccc(Br)cc2c1=O (stereo not given)
GI50: > 100 µM (inactive)

====

- Test system: KM12
- assay-comment: NCI tumour cell line growth inhibition, 48 h
Active and inactive are the calls of the source. Cut-off read from the data, not from the text of the source: active = GI50 up to about 1.1 µM and inactive = higher.
Outcome codes: active, inactive

compound: C=C(c1ccccc1)[C@@]1(O)CC[C@@H]1N(CC#N)Cc1ccccc1
target-of-assay: KM12
class-name: inactive

compound: O=C(O)C1CC2C=CCC(C2)C1 (configuration not stated)
target-of-assay: KM12
class-name: inactive

compound: NS(=O)(=O)c1ccc(/N=N/c2ccc(O)c(C(=O)O)c2)cc1 [SALAZOSULFAMIDE]
target-of-assay: KM12
class-name: inactive

compound: CC(=O)OC1CCC2(C)C(=CC(C3C=C4CC(OC(C)=O)CCC4(C)C4=C3C3CC5OC6(CCC(C)CO6)C(C)C5C3(C)CC4)C3=C2CCC2(C)C3CC3OC4(CCC(C)CO4)C(C)C32)C1 (configuration not stated)
target-of-assay: KM12
class-name: inactive

compound: CN1CC(=O)N2Cc3ccccc3-n3cccc3C2C1 (configuration not stated)
target-of-assay: KM12
class-name: inactive

compound: COC1C(=O)N(SC)C1c1ccccc1Cl (configuration not stated)
target-of-assay: KM12
class-name: inactive

compound: Cc1oc2c(cc(O)c3ccccc32)c2cccc1-2
target-of-assay: KM12
class-name: inactive

compound: CCOC(=O)N(NC(=O)NC(C)C)c1ccccc1
target-of-assay: KM12
class-name: inactive

compound: C=CC(Br)(CBr)CCC(Br)C(C)C (configuration not stated)
target-of-assay: KM12
class-name: inactive

compound: c1ccc2c(c1)Nc1ccccc1[P+]21c2ccccc2Nc2ccccc21
target-of-assay: KM12
class-name: active

compound: CC(C)N1[C@@H]2CCCC[C@H]2N(C(C)C)[PH]1=O
target-of-assay: KM12
class-name: inactive

compound: COc1ccc(/C=C2\CN(C)C/C(=C\c3ccc(OC)c(OC)c3OC)C2=O)c(OC)c1OC
target-of-assay: KM12
class-name: active

====

- System: DU-145
- assay-comment: NCI tumour cell line growth inhibition, 48 h
Active and inactive are the calls of the source. Cut-off read from the data, not from the text of the source: active = GI50 up to about 1.1 µM and inactive = higher.
Possible outcomes: active, inactive

compound: N#Cc1c(N2CCCC2)ncn(-c2ccccc2)c1=S
target-of-assay: DU-145
class-name: inactive

compound: CCCCCC(C)C[C@H]1CO[C@H](c2ccc[nH]2)N[C@H]1C(=O)OC (stereo partly specified)
target-of-assay: DU-145
class-name: inactive

compound: CN1CCN(Cc2ccccc2)CC1CC#N (stereo unspecified)
target-of-assay: DU-145
class-name: inactive

compound: CC(C)=CCNc1nc(Cl)nc2[nH]cnc12
target-of-assay: DU-145
class-name: inactive

compound: Cc1cc(N(CCC#N)CCC#N)ccc1/C=C1N=C(/C=C\c2ccccc2)N(c2ccc(Cl)cc2)C\1=O
target-of-assay: DU-145
class-name: inactive

compound: COc1ccc([C@]23CCN4COC[C@@H]([C@H]42)C2(CC3)OCC(C)(C)CO2)cc1OC
target-of-assay: DU-145
class-name: inactive

compound: c1ccc2sc(C3(N4CCC5(CC4)OCCO5)CCCCC3)cc2c1
target-of-assay: DU-145
class-name: inactive

compound: C[C@H]1O[C@@H](O[C@H]2[C@@H](O)C[C@H](O[C@H]3[C@@H](O)C[C@H](O[C@H]4CC[C@@]5(C)[C@H](CC[C@@H]6[C@@H]5CC[C@]5(C)[C@@H](C7=CC(=O)OC7)[C@@H](O)C[C@]65O)C4)O[C@@H]3C)O[C@@H]2C)C[C@H](O)[C@@H]1O
target-of-assay: DU-145
class-name: active

compound: Cc1oc2nc1C(=O)NCc1nc(cs1)C(=O)N[C@H](C(C)C)c1nc(cs1)C(=O)N[C@H]2C
target-of-assay: DU-145
class-name: inactive

compound: O=c1c2c3c(sc2nc2n1N=CN(c1ccc(F)cc1)C2)CCCC3
target-of-assay: DU-145
class-name: inactive

compound: COC1=C2C[C@](OC)(C#CC=CC#CC2O)CC1(C)C (stereo partly specified)
target-of-assay: DU-145
class-name: inactive

compound: COc1cc(C2c3cc4c(cc3OC(NNS(=O)(=O)c3ccc(C)cc3)C2C)OCO4)cc(OC)c1OC (stereo unspecified)
target-of-assay: DU-145
class-name: inactive

compound: O=C1c2cn[nH]c2N=C(Nc2ccccc2)C1/N=C/c1ccc([N+](=O)[O-])cc1 (stereo unspecified)
target-of-assay: DU-145
class-name: inactive

compound: Oc1c(CN2CCN(c3ccccc3)CC2)cc(Br)c2cccnc12
target-of-assay: DU-145
class-name: inactive

compound: OCC(S)CS.[Bi] (stereo unspecified)
target-of-assay: DU-145
class-name: inactive

compound: Nc1ccc(Oc2ccc(C34CC5CC6C3CC3CC4C(C5)C6(c4ccc(Oc5ccc(N)c(O)c5)cc4)C3)cc2)cc1O
target-of-assay: DU-145
class-name: inactive

compound: CCn1c(SCC(=O)NNC(=S)Nc2ccc([N+](=O)[O-])cc2)nc2ccccc2c1=O
target-of-assay: DU-145
class-name: inactive

compound: CCCC(=O)N[C@H]1CCc2cc(OC)c(OC)c(OC)c2-c2ccc(SC)c(=O)cc21
target-of-assay: DU-145
class-name: active

compound: Cn1c2ccccc2n2c3ncccc3c(=S)c(C#N)c12
target-of-assay: DU-145
class-name: inactive

compound: CCCCCCc1cc2cc(C(=O)Nc3ccccc3)c(=N)oc2cc1O
target-of-assay: DU-145
class-name: inactive

compound: C[C@@H]1C(=O)O[C@@H]2C[C@@]1(C)[C@@H]1C(=O)C3(O)OC14C2(C)OC(=O)[C@@]4(O)CCC1C3C(O)C=C2CC=CC(=O)[C@@]21C (stereo partly specified)
target-of-assay: DU-145
class-name: inactive

compound: CC(C)(Oc1ccc2c(=O)cc(-c3ccccc3)oc2c1)C(=O)N1CCN(c2ccccc2)CC1
target-of-assay: DU-145
class-name: inactive

compound: Brc1c2c(c(Br)c3nsnc13)N=S=N2
target-of-assay: DU-145
class-name: inactive

compound: COc1ccc(C2CC(c3c(C)nn(-c4ccccc4)c3-c3ccc(C)cc3O)=NN2c2ccccc2)cc1 (stereo unspecified)
target-of-assay: DU-145
class-name: inactive

compound: CCOP(=O)(OCC)C(C)(C)OC(=O)NC#N
target-of-assay: DU-145
class-name: inactive

compound: COc1ccc(/C=C2\CN(C)C/C(=C\c3ccc(OC)c(OC)c3OC)C2=O)c(OC)c1OC
target-of-assay: DU-145
class-name: active

compound: COc1ccc(C(=O)/C=C/c2ccc(OCCSCCCCCCCCCCSCCOc3ccc(/C=C/C(=O)c4ccc(OC)cc4)cc3)cc2)cc1
target-of-assay: DU-145
class-name: inactive

compound: CC(=O)CCNc1ccc(-c2cc(-c3ccc(N(C)C)cc3)nc3ccc4ccccc4c23)cc1
target-of-assay: DU-145
class-name: inactive

compound: CN(C)c1ccc(/C=C2\C[C@H]3[C@@H]4CCC5=CC(=O)CC[C@]5(C)[C@H]4CC[C@]3(C)C2=O)cc1
target-of-assay: DU-145
class-name: inactive

compound: c1ccc2c(c1)Nc1ccccc1[P+]21c2ccccc2Nc2ccccc21
target-of-assay: DU-145
class-name: active

compound: C/C(=C\COP(=O)(O)OP(=O)(O)O)CCCOCc1ccccc1
target-of-assay: DU-145
class-name: inactive
